Molecular target: STAT6 (Homo sapiens)
Construct: stably transfected HaCaT keratinocyte cell line, which expresses NanoLuc luciferase reporter gene under the transcriptional control of the STAT6 responsive promoter; endogenous in cells; host or cells: HaCaT keratinocyte reporter cell line (stably transfected with a NanoLuc reporter)
Sequence (P42226 whole entry): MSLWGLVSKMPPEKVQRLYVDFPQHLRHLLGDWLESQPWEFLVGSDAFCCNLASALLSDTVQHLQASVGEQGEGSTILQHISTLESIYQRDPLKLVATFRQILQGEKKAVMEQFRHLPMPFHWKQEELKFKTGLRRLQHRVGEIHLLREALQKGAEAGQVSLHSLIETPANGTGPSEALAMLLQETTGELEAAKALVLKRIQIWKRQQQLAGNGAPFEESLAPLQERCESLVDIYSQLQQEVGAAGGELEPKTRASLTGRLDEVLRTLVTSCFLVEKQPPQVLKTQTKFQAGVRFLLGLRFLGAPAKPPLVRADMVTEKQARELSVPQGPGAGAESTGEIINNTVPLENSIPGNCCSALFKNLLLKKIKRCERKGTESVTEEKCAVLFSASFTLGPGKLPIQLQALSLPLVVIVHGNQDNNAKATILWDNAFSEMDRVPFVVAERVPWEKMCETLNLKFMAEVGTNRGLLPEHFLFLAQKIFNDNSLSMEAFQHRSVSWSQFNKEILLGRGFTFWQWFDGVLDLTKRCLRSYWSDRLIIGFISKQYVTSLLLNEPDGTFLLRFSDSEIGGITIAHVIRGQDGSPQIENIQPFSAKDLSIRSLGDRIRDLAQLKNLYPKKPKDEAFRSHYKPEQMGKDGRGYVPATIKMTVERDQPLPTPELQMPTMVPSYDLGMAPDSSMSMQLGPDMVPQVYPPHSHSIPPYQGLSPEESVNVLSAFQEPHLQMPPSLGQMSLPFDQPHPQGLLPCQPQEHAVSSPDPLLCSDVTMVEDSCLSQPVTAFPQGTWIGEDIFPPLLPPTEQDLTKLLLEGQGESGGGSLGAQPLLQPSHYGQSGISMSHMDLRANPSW
Experiment: STAT6 Reporter Luciferase Assay (IL-13 stimulated HaCaT keratinocyte NanoLuc reporter cells)
Assay type: cell-based
Settings: STAT6 NanoLuc luciferase reporter, IL-13 stimulated HaCaT keratinocyte cells; read-out: Reporter EC50
pEC50: −log10 of the molar value.
Please enter label 1 where pEC50 is greater than or equal to 8, and label 0 where it is lower.

Some solved entries appear below for comparison.
{"molecule": "CC(C)n1nc(C(=O)NCc2ccc(NC(=O)N(C)C)cc2)c2c1CCN(c1ccc(N3C(=O)CC[C@H]3CO)cn1)C2 [Example 69]", "classification": "label 0"}
{"molecule": "CCn1nc(C(=O)NCc2ccc(NC(=O)N(C)C)cc2)c2c1C(C)CN(c1ccc(C(=O)N(C)C)cn1)C2 (racemic) [Example 71]", "classification": "label 1"}
{"molecule": "CN(C)C(=O)Nc1ccc(CNC(=O)c2nn(C3CCOC3)c3c2CN(c2ccc(C(=O)N(C)C)cn2)CC3)cc1 (racemic) [Example 90]", "classification": "label 0"}
{"molecule": "CC(C)n1nc(C(=O)NCc2ccc(NC(N)=O)cc2)c2c1CCN(c1ccc(C(=O)N(C)C)cn1)C2 [Example 133]", "classification": "label 0"}

Consider now this further molecule.
Ask: Hi team, for CC1CN(c2ccc(C(=O)N(C)C)cn2)Cc2c(C(=O)NCc3ccc(NC(=O)N(C)C)cc3)nn(C)c21 (single isomer, unassigned) [Example 8] , is the recorded pEC50 at or above 8?
Reply: label 1
